# TESTED TARGET: Shank3 PDZ (Mus musculus, UniProt Q4ACU6)
# Construct: His tag; made in house; host or cells: E. coli BL21
# Sequence (Q4ACU6 533-665): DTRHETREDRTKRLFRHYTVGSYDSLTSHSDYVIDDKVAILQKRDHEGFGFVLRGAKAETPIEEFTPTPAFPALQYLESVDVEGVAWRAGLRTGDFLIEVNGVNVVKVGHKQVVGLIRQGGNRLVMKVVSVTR
# ASSAY TEXT: Isothermal titration calorimetry, Shank3 PDZ
# Format: binding
# MEASUREMENT SETUP: MicroCal VP-ITC, 25°C, 50 mM sodium phosphate, 200 mM NaCl, pH 7.4; single-binding-site model; [p1] = 406 μM/[Shank3 PDZ] = 40 μM; [p2] = 400 μM/30 μM; [p3] = 315 μM/34 μM; read-out: Kd (ITC)
Ends that are not written are not given here.

SUBSTANCE: GSGSGDPAWDETNL-OH [p1]
Kd (µM): 24
